target: SARS-CoV-2 M^pro (Severe acute respiratory syndrome coronavirus 2, UniProt P0DTD1); experiment: biochemical; type: biochemical; settings: 0.5 μM Mpro, substrate 1.25-80 μM, two inhibitor concentrations; error = SEM
Measured endpoint: pKi
# pKi: negative log10 of molar concentration; output just the value

O=[N+]([O-])C(Br)(CO)CO ... 5.60
COc1cc(-c2ccc(/N=N/c3ccc4c(S(=O)(=O)O)cc(S(=O)(=O)O)c(N)c4c3O)c(OC)c2)ccc1/N=N/c1ccc2c(S(=O)(=O)O)cc(S(=O)(=O)O)c(N)c2c1O ... 5.89
CC1=C(CCC(=O)O)c2cc3[nH]c(cc4nc(cc5[nH]c(cc1n2)c(C)c5C(C)O)C(C)=C4C(C)O)c(C)c3CCC(=O)O (centres unmarked) ... 5.23
Cc1cc(-c2ccc(/N=N/c3ccc4c(S(=O)(=O)O)cc(S(=O)(=O)O)c(N)c4c3O)c(C)c2)ccc1/N=N/c1ccc2c(S(=O)(=O)O)cc(S(=O)(=O)O)c(N)c2c1O ... 6.68

We next turn to a different compound, shown below.
QUERY: Test system SARS-CoV-2 M^pro (Severe acute respiratory syndrome coronavirus 2, UniProt P0DTD1); read-out pKi; what value for O=C(OCC1OC(OC(=O)c2cc(O)c(O)c(OC(=O)c3cc(O)c(O)c(O)c3)c2)C(OC(=O)c2cc(O)c(O)c(OC(=O)c3cc(O)c(O)c(O)c3)c2)C(OC(=O)c2cc(O)c(O)c(OC(=O)c3cc(O)c(O)c(O)c3)c2)C1OC(=O)c1cc(O)c(O)c(OC(=O)c2cc(O)c(O)c(O)c2)c1)c1cc(O)c(O)c(OC(=O)c2cc(O)c(O)c(O)c2)c1 (centres unmarked) ?
RESULT: 5.85

----------
molecular target: SARS-CoV-2 M^pro (Severe acute respiratory syndrome coronavirus 2); assay: biochemical; format: biochemical; details: most probable model by SSQ, ΔAIC, ΔBIC (Dynafit)
Measured endpoint: Inhibition mechanism

O=[N+]([O-])C(Br)(CO)CO ... non-competitive
COc1cc(-c2ccc(/N=N/c3ccc4c(S(=O)(=O)O)cc(S(=O)(=O)O)c(N)c4c3O)c(OC)c2)ccc1/N=N/c1ccc2c(S(=O)(=O)O)cc(S(=O)(=O)O)c(N)c2c1O ... competitive inhibition
CC1=C(CCC(=O)O)c2cc3[nH]c(cc4nc(cc5[nH]c(cc1n2)c(C)c5C(C)O)C(C)=C4C(C)O)c(C)c3CCC(=O)O (centres unmarked) ... non-competitive
Cc1cc(-c2ccc(/N=N/c3ccc4c(S(=O)(=O)O)cc(S(=O)(=O)O)c(N)c4c3O)c(C)c2)ccc1/N=N/c1ccc2c(S(=O)(=O)O)cc(S(=O)(=O)O)c(N)c2c1O ... competitive inhibition

----------
# pIC50 per record follows
molecular target: SARS-CoV-2 M^pro (Severe acute respiratory syndrome coronavirus 2, UniProt P0DTD1)
# pIC50: negative log10 of molar concentration; output just the value

QUERY: What value of pIC50 has been recorded for this entry: CCOc1cccc(C(=O)c2ccc(O)c(O)c2O)c1
RESULT: 4.97

QUERY: // same read-out, input: O=C(OCC1OC(OC(=O)c2cc(O)c(O)c(OC(=O)c3cc(O)c(O)c(O)c3)c2)C(OC(=O)c2cc(O)c(O)c(OC(=O)c3cc(O)c(O)c(O)c3)c2)C(OC(=O)c2cc(O)c(O)c(OC(=O)c3cc(O)c(O)c(O)c3)c2)C1OC(=O)c1cc(O)c(O)c(OC(=O)c2cc(O)c(O)c(O)c2)c1)c1cc(O)c(O)c(OC(=O)c2cc(O)c(O)c(O)c2)c1 (stereo not shown)
RESULT: 5.68

QUERY: // same read-out, input: C=CC1=C(C)c2cc3[nH]c(cc4nc(cc5[nH]c(cc1n2)c(C)c5CCC(=O)O)C(CCC(=O)O)=C4C)c(C)c3C=C
RESULT: 4.64

QUERY: // same read-out, input: O=[N+]([O-])C(Br)(CO)CO
RESULT: 5.36

QUERY: // same read-out, input: O=C1C(Cl)=C(Cl)C(=O)C(Cl)=C1Cl
RESULT: 5.39

QUERY: // same read-out, input: CC(=O)[O][Hg][c]1ccccc1 [Phenylmercuric acetate (2), Phenylmercuric acetate]
RESULT: 6.40

----------
target: SARS-CoV-2 M^pro (Severe acute respiratory syndrome coronavirus 2, UniProt P0DTD1); assay: biochemical; format: biochemical; details: fitted in the kinetics experiment with this inhibitor; error = SEM
Measured endpoint: kcat (turnover number) (s⁻¹)
Write the value in s⁻¹ as a bare number.

// worked examples, kcat (turnover number) included
CC1=C(CCC(=O)O)c2cc3[nH]c(cc4nc(cc5[nH]c(cc1n2)c(C)c5C(C)O)C(C)=C4C(C)O)c(C)c3CCC(=O)O (stereo not drawn) [Hematoporphyrin (5), Hematoporphyrin] ... 0.011
O=[N+]([O-])C(Br)(CO)CO [Bronopol (3), 2-bromo-2-nitropropane-1,3-diol] ... 0.010

We next turn to a different compound, shown below.
QUERY: What value of kcat (turnover number) has been recorded for this entry: O=C(OCC1OC(OC(=O)c2cc(O)c(O)c(OC(=O)c3cc(O)c(O)c(O)c3)c2)C(OC(=O)c2cc(O)c(O)c(OC(=O)c3cc(O)c(O)c(O)c3)c2)C(OC(=O)c2cc(O)c(O)c(OC(=O)c3cc(O)c(O)c(O)c3)c2)C1OC(=O)c1cc(O)c(O)c(OC(=O)c2cc(O)c(O)c(O)c2)c1)c1cc(O)c(O)c(OC(=O)c2cc(O)c(O)c(O)c2)c1 (stereo not drawn) [Tannic acid (4), Tannic acid]
RESULT: 0.010

----------
biological target: SARS-CoV-2 M^pro (Severe acute respiratory syndrome coronavirus 2, UniProt P0DTD1); experiment: biochemical; type: biochemical
Measured endpoint: Ki (nM)
Write the value in nM as a bare number.

QUERY: What value of Ki has been recorded for this entry: CC(=O)[O][Hg][c]1ccccc1 [Phenylmercuric acetate (2), Phenylmercuric acetate]
RESULT: 110

QUERY: // same read-out, input: C[CH2][Hg][S]c1ccccc1C(=O)[O-].[Na+]
RESULT: 600

----------
System: SARS-CoV-2 M^pro (Severe acute respiratory syndrome coronavirus 2) | Read-out: log10 of IC50
Form field - Quantity: IC50; Unit: µM; Scale: log10

// worked examples, log10 of IC50 included
COc1cc(-c2ccc(/N=N/c3ccc4c(S(=O)(=O)O)cc(S(=O)(=O)O)c(N)c4c3O)c(OC)c2)ccc1/N=N/c1ccc2c(S(=O)(=O)O)cc(S(=O)(=O)O)c(N)c2c1O ... 0.89
C[CH2][Hg][S]c1ccccc1C(=O)[O-].[Na+] ... -0.22
CCOc1ccc(C(=O)c2ccc(O)c(O)c2O)cc1 ... 0.95
Cc1cc(-c2ccc(/N=N/c3ccc4c(S(=O)(=O)O)cc(S(=O)(=O)O)c(N)c4c3O)c(C)c2)ccc1/N=N/c1ccc2c(S(=O)(=O)O)cc(S(=O)(=O)O)c(N)c2c1O ... -0.70
CC1=CC(=O)c2c(O)cccc2C1=O ... 1.23
COc1cc(C(=S)N2CCOCC2)ccc1O [Vanitiolide (10)] ... 0.66

We next turn to a different compound, shown below.
QUERY: What value of log10 of IC50 has been recorded for this entry: CC1=C(CCC(=O)O)c2cc3[nH]c(cc4nc(cc5[nH]c(cc1n2)c(C)c5C(C)O)C(C)=C4C(C)O)c(C)c3CCC(=O)O (stereo not shown)
RESULT: 0.59
